target: Potassium channel subfamily K member 3 (Homo sapiens) (UniProt O14649); assay: human KCNK3 channel inhibitors, primary screen, CHO cells, FluxOR thallium flux, B-score (AID 602410); details: FluxOR fluorescence, at 10 µM;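 for B-score: more negative B-score means stronger inhibition of thallium flux through KCNK3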
Sequence (O14649 whole entry, looked up): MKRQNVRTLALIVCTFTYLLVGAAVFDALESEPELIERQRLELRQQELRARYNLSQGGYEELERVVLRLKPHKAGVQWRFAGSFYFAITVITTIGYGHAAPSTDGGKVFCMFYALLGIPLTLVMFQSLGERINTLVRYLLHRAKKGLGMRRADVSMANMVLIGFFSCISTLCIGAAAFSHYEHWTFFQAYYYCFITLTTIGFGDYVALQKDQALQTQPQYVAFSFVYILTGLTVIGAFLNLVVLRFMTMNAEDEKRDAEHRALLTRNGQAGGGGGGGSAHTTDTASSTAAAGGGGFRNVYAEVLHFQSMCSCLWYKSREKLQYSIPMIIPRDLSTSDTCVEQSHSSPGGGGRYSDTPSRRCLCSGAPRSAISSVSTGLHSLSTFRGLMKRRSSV
Hit rate of the full screen: of about 340,000 compounds, about 2,800 (0.82%) were called active.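 Rule for the calls: active = B-score under library mean minus 4 SD, starting fluorescence ratio at most library mean plus 5 SD; inactive = the rest.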 The list comes from a sample in which actives are over-represented; it also holds close analogues and randomly drawn compounds.
Select the matching outcome among active, inactive

Take a look at these entries with their results.
O=C(Oc1ccc(Br)cc1C(=S)N1CCOCC1)c1cccc([N+](=O)[O-])c1    active
Cc1c(NS(=O)(=O)c2ccc(NC3CCCC3)c([N+](=O)[O-])c2)c(=O)n(-c2ccccc2)n1C    inactive
O=C(COc1ccccc1F)Nc1nc(-c2ccccn2)cs1    inactive
Cc1ccccc1C(OCC(O)CN1CCCCC1CCO)c1ccccc1 (configuration not stated)    inactive
O=C(Oc1ccccc1C(=S)N1CCCCC1)c1cc([N+](=O)[O-])cc([N+](=O)[O-])c1    inactive

Outcome? `Cc1cccc(NC(=O)c2sc3nc4c(c(-c5ccco5)c3c2N)CCC4)c1`
active

Outcome? COc1cccc(CN(C)CC(O)COC(c2ccccc2)c2ccccc2C)c1 (configuration not stated)
active

Outcome? `O=C(NN=C1CCC(=NNC(=O)c2cccnc2)CC1)c1cccnc1`
inactive

Outcome? `O=C(N/N=C/c1sc(N2CCCCC2)nc1-c1cccs1)c1cccnc1`
active

Outcome? COc1ccc(C(CCNCc2ccccc2F)c2ccc(F)cc2)cc1 (configuration not stated)
inactive

----------
molecular target: Potassium channel subfamily K member 3 (Homo sapiens) (UniProt O14649); assay: human KCNK3 channel inhibitors, primary screen, CHO cells, FluxOR thallium flux, B-score (AID 602410); settings: FluxOR fluorescence, at 10 µM;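 for B-score: more negative B-score means stronger inhibition of thallium flux through KCNK3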
Hit rate of the full screen: of about 340,000 compounds, about 2,800 (0.82%) were called active.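 How the source made its calls: active means B-score under library mean minus 4 SD, starting fluorescence ratio at most library mean plus 5 SD; inactive means the rest.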 The sample as a whole holds a higher share of actives than the screen did.
Select the matching outcome among TRUE (active), FALSE (inactive)

Take a look at these entries with their results.
CCc1cccc(NC(=O)C2CCCN(S(=O)(=O)c3ccc4[nH]c(=O)ccc4c3)C2)c1 (stereo not given)    FALSE
COc1ccccc1N(CCOc1ccccc1)S(=O)(=O)c1ccccc1    TRUE
Cc1ccc2nc(COc3ccc(N(C)S(=O)(=O)c4ccccc4)cc3)cc(=O)n2c1    FALSE
Cc1cc(C)cc(NC(=O)C2CCCN(S(=O)(=O)c3ccc4[nH]c(=O)ccc4c3)C2)c1 (stereo not given)    FALSE
COc1ccccc1NC(=O)CN(c1ccccc1OC)S(=O)(=O)c1ccccc1    FALSE
COc1cccc(COc2ccc(N(C)S(=O)(=O)c3ccccc3)cc2)c1    TRUE
CCOc1ccc(C2c3[nH]c4ccccc4c3CCN2Cc2cccn2-c2ncccn2)cc1 (stereo not given)    TRUE
COc1ccc(N(Cc2ccccc2)S(=O)(=O)c2cccc(C(=O)O)c2)cc1    FALSE

Outcome? `C/C(=N/NC(=O)c1ccn(C)n1)c1ccncc1`
FALSE

Outcome? `Cn1cc(Cl)c(C(=O)NNC(=S)Nc2cccc(Cl)c2)n1`
FALSE

----------
biological target: Potassium channel subfamily K member 3 (Homo sapiens) (UniProt O14649); test: human KCNK3 channel inhibitors, primary screen, CHO cells, FluxOR thallium flux, B-score (AID 602410); conditions: FluxOR fluorescence, at 10 µM;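 for B-score: more negative B-score means stronger inhibition of thallium flux through KCNK3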
Out of some 340,000 compounds screened, about 2,800 (0.82%) were called active.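 The calls were made as follows: active = B-score under library mean minus 4 SD, starting fluorescence ratio at most library mean plus 5 SD; inactive = the rest.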 Shown is part of a subset that was picked to be rich in actives.
Select the matching outcome among YES (active), NO (inactive)

Take a look at these entries with their results.
CSCc1cc(N(C)C)nc(SCc2ccc(Cl)cc2Cl)n1    YES
CCN1CCN(C(=O)N[C@@H](C(=O)N[C@@H]2C(=O)N3C(C(=O)O)=C(CSc4nnnn4C)CS[C@H]23)c2ccc(O)cc2)C(=O)C1=O    NO
O=C1c2ccccc2C(O)N1Cc1ccccc1Cl (configuration not stated)    NO
O=C(NCC(=O)N1CCCCCCC1)c1ccccc1Cl    NO
CCN(C[C@H]1N[C@@](CC)(C(=O)OC)[C@H]2C(=O)N(Cc3ccccc3)C(=O)[C@@H]12)S(=O)(=O)c1ccccc1    NO
COc1ccc(N2CCN(CCNC(=O)Nc3cc(Cl)ccc3Cl)CC2)cc1    NO

Outcome? `Clc1ccc(CSc2nnc(/C=C/c3ccccc3)o2)c(Cl)c1`
NO

Outcome? `CCOC(=O)C1CCN(C(=O)C2CCN(S(=O)(=O)CC)CC2)CC1`
NO

Outcome? O=C(O)C(CCc1ccccn1)c1ccccc1 (configuration not stated)
NO

Outcome? `CCOC(=O)CNC(=O)CSc1ccc2nnc(-c3cccnc3)n2n1`
NO

Outcome? `CSCc1cc(N2CCOCC2)nc(SCc2ccc(Cl)cc2Cl)n1`
NO
